Measured GI50 by item
System: LOX IMVI
Assay: NCI tumour cell line growth inhibition, 48 h
Activity calls are given as the source filed them. No stated cut-off is given here; in the data, active = GI50 up to about 1.1 µM and inactive = higher.
MEASURED QUANTITY: GI50

# COMPOUND, RESULT
measured = [
    ("CCOC(=O)c1cnc2oc3ccc(O)cc3c2c1C", "> 100 µM (inactive)"),
    ("O=c1[nH][nH]c(=O)n1Cc1ccccc1Cn1c(=O)[nH][nH]c1=O", "> 100 µM (inactive)"),
    ("CC1(C)CC[C@]2(C(=O)O)CC[C@]3(C)C(=CC[C@@H]4[C@@]5(C)CC[C@H](OC6OC(CO)C(O)C(O)C6OC6OC(CO)C(O)C(O)C6O)C(C)(C)[C@@H]5CC[C@]43C)[C@@H]2C1 (stereo not given in full)", "28.2 µM (inactive)"),
    ("CCOC(=O)/C=C/[C@@H](CC)O[Si](C(C)C)(C(C)C)C(C)C", "> 100 µM (inactive)"),
    ("CC1(C)OC[C@@H](O)[C@H](C#N)CO1", "> 100 µM (inactive)"),
    ("Cc1nnc2n1N=C(c1cc(F)c(Cl)cc1Cl)/C(=C/c1ccc(Cl)cc1)S2", "9.33 µM (inactive)"),
    ("O=S(=O)(O)CCCc1cccc2ccccc12", "> 100 µM (inactive)"),
    ("O=C1C2C3C4C1C1C2[C@H](OCc2ccccc2)C3C1[C@H]4OCc1ccccc1 (stereo not given in full)", "40.4 µM (inactive)"),
    ("N#CCN1C(=O)c2cccc3cc([N+](=O)[O-])cc(c23)C1=O", "21.6 µM (inactive)"),
    ("CC1(C)N=C(N)N=C(N)N1c1cccc(OCc2cccc([N+](=O)[O-])c2)c1", "9.27 µM (inactive)"),
]

###

System: HOP-62
Assay: NCI tumour cell line growth inhibition, 48 h
The source made the active and inactive calls. Rule as the data show it: active = GI50 up to about 1.1 µM and inactive = higher. Residues, ends and D or L forms follow the SMILES beside them.
Labels: active, inactive

# MOLECULE, CAT
records = [
    ("N#CC(C#N)=C/C=C(\\Sc1c(Cl)c(Cl)nc(Cl)c1Cl)c1ccc(Cl)cc1", "inactive"),
    ("CCC(C)C(NC(=O)C(CC(C)C)NC(=O)CNC(=O)C(NC(=O)C1CCCN1C(=O)C(CC(C)C)NC(=O)C(N)Cc1ccccc1)C(C)CC)C(=O)NC(CC(C)C)C(N)=O (configuration not stated) (H-FLPIGLIL-NH2; configuration not given here)", "inactive"),
    ("C=C(Cl)[C@@](Cl)(CBr)CC[C@@H](Br)C(C)(C)Cl", "active"),
    ("O=C1c2cc(-c3ccccc3)cnc2S(=O)(=O)N1c1ccc(Br)cc1", "inactive"),
    ("O=C(c1ccccc1)c1nc2ccc(Cl)cc2cc1C(Br)Br", "active"),
    ("N#Cc1c([N+](=O)[O-])cc(C(F)(F)F)cc1[N+](=O)[O-]", "inactive"),
    ("CCOC(=O)/C=C(\\C(=O)OCC)n1ccc(=O)[nH]c1=O", "inactive"),
    ("CC(C)(C)C1CCC(O)(c2ccccc2)CC1 (configuration not stated)", "inactive"),
    ("CCOC(=O)c1c(NS(=O)(=O)c2ccc(C)cc2)sc2c1CCCC2", "inactive"),
    ("CC(C)C(Br)CCC1=CCC(Br)(Br)C1 (configuration not stated)", "inactive"),
    ("O=C(O)COc1c(Cl)cc(Cl)c2cccnc12", "inactive"),
    ("CCOC(=O)/C=C/[C@@H](CC)O[Si](C(C)C)(C(C)C)C(C)C", "inactive"),
]
